Kindly supply the reported protein stability index values for the records listed here.
- System: Saccharomyces cerevisiae
- experiment: protein stability index of tFT-peptide fusion (C-terminal peptide) (PSI (0-1 scale)); higher = more stable (slower turnover)
- conditions: genetic background: wild type; temperature: 30 C
Note: the reply should be a number with no unit written.

Prompt: State the recorded protein stability index for this entry: `GGTKGKAGGEAA`
Completion: 0.672

Prompt: State the recorded protein stability index for this entry: `LILLTIQSQPPV`
Completion: 0.622

Prompt: State the recorded protein stability index for this entry: `DTGLGSVVFVVF`
Completion: 0.688

Prompt: State the recorded protein stability index for this entry: `TSIDIEWYNSLM`
Completion: 0.589

Prompt: State the recorded protein stability index for this entry: `DSAVTPPTTCLP`
Completion: 0.719

Prompt: State the recorded protein stability index for this entry: `KGRLRVGAAGCD`
Completion: 0.633

Prompt: State the recorded protein stability index for this entry: `LPLLRWASPRGF`
Completion: 0.685

Prompt: State the recorded protein stability index for this entry: `PPLSLSPYPLPH`
Completion: 0.695

Prompt: State the recorded protein stability index for this entry: `GGVLDGVGVRMG`
Completion: 0.69

Prompt: State the recorded protein stability index for this entry: `SPSLPQLLDPPS`
Completion: 0.711

Prompt: State the recorded protein stability index for this entry: `WLFVGGWGVFGG`
Completion: 0.674

Prompt: State the recorded protein stability index for this entry: `PPCTVKAQRAYD`
Completion: 0.694

Prompt: State the recorded protein stability index for this entry: `SRRRSPARPSLP`
Completion: 0.746

Prompt: State the recorded protein stability index for this entry: `RRLGVACCVVEG`
Completion: 0.599

Prompt: State the recorded protein stability index for this entry: `KDLEIKKEKRKD`
Completion: 0.666

Prompt: State the recorded protein stability index for this entry: `SAQGPVLFSTGP`
Completion: 0.716

Prompt: State the recorded protein stability index for this entry: `GENLGGDVFNIG`
Completion: 0.73

Prompt: State the recorded protein stability index for this entry: `WRVDKREPPGRL`
Completion: 0.707

Prompt: State the recorded protein stability index for this entry: `ITEGGANLEGRF`
Completion: 0.661

Prompt: State the recorded protein stability index for this entry: `LGRGRGGCLGEL`
Completion: 0.592

Prompt: State the recorded protein stability index for this entry: `GLSGVVGSRCHC`
Completion: 0.713

Prompt: State the recorded protein stability index for this entry: `VWSWGEGGGAVV`
Completion: 0.7

Prompt: State the recorded protein stability index for this entry: `FFLLLVGFSVLG`
Completion: 0.349

Prompt: State the recorded protein stability index for this entry: `SPPTEPFPDPTH`
Completion: 0.663

Prompt: State the recorded protein stability index for this entry: `GRAGGDGVGGGV`
Completion: 0.638

Prompt: State the recorded protein stability index for this entry: `QNEVWDACVGRC`
Completion: 0.702

Prompt: State the recorded protein stability index for this entry: `EYFKTKQKKKKE`
Completion: 0.753

Prompt: State the recorded protein stability index for this entry: `TRTCGRRRAGGR`
Completion: 0.633

Prompt: State the recorded protein stability index for this entry: `FLSGPCLLSFAS`
Completion: 0.679

Prompt: State the recorded protein stability index for this entry: `SPCLLPPPRSSP`
Completion: 0.737

Prompt: State the recorded protein stability index for this entry: `LPLPPPSPFPPL`
Completion: 0.691

Prompt: State the recorded protein stability index for this entry: `IKREGRDNEEKK`
Completion: 0.703

Prompt: State the recorded protein stability index for this entry: `CFCSWFWDLVLC`
Completion: 0.628

Prompt: State the recorded protein stability index for this entry: `TLSPPPLSPSAP`
Completion: 0.711

Prompt: State the recorded protein stability index for this entry: `HFPTTSITPIYC`
Completion: 0.601

Prompt: State the recorded protein stability index for this entry: `VSFPHSRLSLTI`
Completion: 0.747

====

- Tested on: Saccharomyces cerevisiae
- experiment: protein stability index of tFT-peptide fusion (C-terminal peptide) (PSI (0-1 scale)); higher = more stable (slower turnover)
- conditions: genetic background: wild type; temperature: 30 C
Kindly supply the reported protein stability index values for the records listed here.
Note: the reply should be a number with no unit written.

Prompt: State the recorded protein stability index for this entry: KPGLTVYSIELL [SMP3 C-terminal 12 aa]
Completion: 0.692

Prompt: State the recorded protein stability index for this entry: RGFSFMPDDLDL [PKC1 C-terminal 12 aa]
Completion: 0.72

Prompt: State the recorded protein stability index for this entry: YDLEAGENKFNF [URA7 C-terminal 12 aa]
Completion: 0.703

Prompt: State the recorded protein stability index for this entry: PFYRTSAESIDF [SLM5 C-terminal 12 aa]
Completion: 0.706

Prompt: State the recorded protein stability index for this entry: SGKRGVGKTDFR [NOG1 C-terminal 12 aa]
Completion: 0.69

Prompt: State the recorded protein stability index for this entry: YLEHQQIHGRVV [YHR145C C-terminal 12 aa]
Completion: 0.691

Prompt: State the recorded protein stability index for this entry: FCIFNNVVFPML [RRT1 C-terminal 12 aa]
Completion: 0.7

====

Kindly supply the reported protein stability index values for the records listed here.
- System: Saccharomyces cerevisiae
- experiment: protein stability index of tFT-peptide fusion (C-terminal peptide) (PSI (0-1 scale)); higher = more stable (slower turnover)
- conditions: genetic background: wild type; temperature: 30 C
Note: the reply should be a number with no unit written.

Prompt: State the recorded protein stability index for this entry: KEWKEKEKTGKQ [MPC1 C-terminal 12 aa]
Completion: 0.702

Prompt: State the recorded protein stability index for this entry: AGEKTVAELMEN [PYP1 C-terminal 12 aa]
Completion: 0.687

Prompt: State the recorded protein stability index for this entry: KTHRSRSSRKGN [YMR135W-A C-terminal 12 aa]
Completion: 0.704

Prompt: State the recorded protein stability index for this entry: VKTLANEILNII [ECM11 C-terminal 12 aa]
Completion: 0.711

Prompt: State the recorded protein stability index for this entry: DYKKFIEDVLRQ [MLC1 C-terminal 12 aa]
Completion: 0.702

Prompt: State the recorded protein stability index for this entry: SALNKIKADEKK [ACO1 C-terminal 12 aa]
Completion: 0.684

Prompt: State the recorded protein stability index for this entry: YSKHLKRLLPYH [MRP35 C-terminal 12 aa]
Completion: 0.712

Prompt: State the recorded protein stability index for this entry: GSTSCPLLRLSR [YHR073C-B C-terminal 12 aa]
Completion: 0.685

Prompt: State the recorded protein stability index for this entry: ADWKAQRGEDGK [PNG1 C-terminal 12 aa]
Completion: 0.703

Prompt: State the recorded protein stability index for this entry: KFQDVLDNFLQG [ETT1 C-terminal 12 aa]
Completion: 0.685

Prompt: State the recorded protein stability index for this entry: LADAGHLWHSIT [YNL120C C-terminal 12 aa]
Completion: 0.613

Prompt: State the recorded protein stability index for this entry: DTHTNEIIKKEI [HRQ1 C-terminal 12 aa]
Completion: 0.695

Prompt: State the recorded protein stability index for this entry: NINGTTAAVDVN [PAP1 C-terminal 12 aa]
Completion: 0.658

Prompt: State the recorded protein stability index for this entry: TFKGLYAEANSI [YOR111W C-terminal 12 aa]
Completion: 0.716

Prompt: State the recorded protein stability index for this entry: EKEFTGNSQSEK [NMA111 C-terminal 12 aa]
Completion: 0.742

Prompt: State the recorded protein stability index for this entry: TAPLIQRKNKKN [RPN8 C-terminal 12 aa]
Completion: 0.355

Prompt: State the recorded protein stability index for this entry: ENKNWSIITPSG [YBL086C C-terminal 12 aa]
Completion: 0.684

Prompt: State the recorded protein stability index for this entry: IFKSLIAKKVQS [BPL1 C-terminal 12 aa]
Completion: 0.433

Prompt: State the recorded protein stability index for this entry: ANRQCYVNGTKT [YDR250C C-terminal 12 aa]
Completion: 0.691

Prompt: State the recorded protein stability index for this entry: CLCLINLCCDVF [YDR034W-B C-terminal 12 aa]
Completion: 0.295

Prompt: State the recorded protein stability index for this entry: KERSHHFVRNMN [YKL102C C-terminal 12 aa]
Completion: 0.637

Prompt: State the recorded protein stability index for this entry: EEKKKKKIAESK [TIM50 C-terminal 12 aa]
Completion: 0.64

Prompt: State the recorded protein stability index for this entry: YLALKWIVVEQK [ADP1 C-terminal 12 aa]
Completion: 0.573

Prompt: State the recorded protein stability index for this entry: EEFINKLVKSMN [RPL7A C-terminal 12 aa]
Completion: 0.705

Prompt: State the recorded protein stability index for this entry: RMSNGLYTISMS [YPR050C C-terminal 12 aa]
Completion: 0.687

Prompt: State the recorded protein stability index for this entry: FEDCCRWNEKQG [HIS6 C-terminal 12 aa]
Completion: 0.694

Prompt: State the recorded protein stability index for this entry: YPGEAKRPQERF [COX10 C-terminal 12 aa]
Completion: 0.7

Prompt: State the recorded protein stability index for this entry: SISVLFDSLAAL [PRS1 C-terminal 12 aa]
Completion: 0.736

Prompt: State the recorded protein stability index for this entry: CYTEEEWSKIVV [BOL2 C-terminal 12 aa]
Completion: 0.717

Prompt: State the recorded protein stability index for this entry: WKLAKLQIDEAL [SNX41 C-terminal 12 aa]
Completion: 0.69

Prompt: State the recorded protein stability index for this entry: HNLHSYEKRLHN [IMD2 C-terminal 12 aa]
Completion: 0.742

Prompt: State the recorded protein stability index for this entry: VYEYIVNVNEYA [CPS1 C-terminal 12 aa]
Completion: 0.682

Prompt: State the recorded protein stability index for this entry: SMPLYKDVQKDA [RBK1 C-terminal 12 aa]
Completion: 0.665

Prompt: State the recorded protein stability index for this entry: CTFIYFLYFSLF [YBL070C C-terminal 12 aa]
Completion: 0.288

Prompt: State the recorded protein stability index for this entry: SGETSDIIFRNY [ADK2 C-terminal 12 aa]
Completion: 0.786

Prompt: State the recorded protein stability index for this entry: MVTNDGFGSTVL [YLR379W-A C-terminal 12 aa]
Completion: 0.734

Prompt: State the recorded protein stability index for this entry: LNRKWYTRFFFP [MNN10 C-terminal 12 aa]
Completion: 0.702

Prompt: State the recorded protein stability index for this entry: FIAQAEAEAETD [GRS1 C-terminal 12 aa]
Completion: 0.669

Prompt: State the recorded protein stability index for this entry: GKTTYSEVWAGY [VVS1 C-terminal 12 aa]
Completion: 0.741
